- Experimental system: αIIbβ3 (Homo sapiens, UniProt P05106+P08514)
- Sequence (P08514 32-887 limits assumed): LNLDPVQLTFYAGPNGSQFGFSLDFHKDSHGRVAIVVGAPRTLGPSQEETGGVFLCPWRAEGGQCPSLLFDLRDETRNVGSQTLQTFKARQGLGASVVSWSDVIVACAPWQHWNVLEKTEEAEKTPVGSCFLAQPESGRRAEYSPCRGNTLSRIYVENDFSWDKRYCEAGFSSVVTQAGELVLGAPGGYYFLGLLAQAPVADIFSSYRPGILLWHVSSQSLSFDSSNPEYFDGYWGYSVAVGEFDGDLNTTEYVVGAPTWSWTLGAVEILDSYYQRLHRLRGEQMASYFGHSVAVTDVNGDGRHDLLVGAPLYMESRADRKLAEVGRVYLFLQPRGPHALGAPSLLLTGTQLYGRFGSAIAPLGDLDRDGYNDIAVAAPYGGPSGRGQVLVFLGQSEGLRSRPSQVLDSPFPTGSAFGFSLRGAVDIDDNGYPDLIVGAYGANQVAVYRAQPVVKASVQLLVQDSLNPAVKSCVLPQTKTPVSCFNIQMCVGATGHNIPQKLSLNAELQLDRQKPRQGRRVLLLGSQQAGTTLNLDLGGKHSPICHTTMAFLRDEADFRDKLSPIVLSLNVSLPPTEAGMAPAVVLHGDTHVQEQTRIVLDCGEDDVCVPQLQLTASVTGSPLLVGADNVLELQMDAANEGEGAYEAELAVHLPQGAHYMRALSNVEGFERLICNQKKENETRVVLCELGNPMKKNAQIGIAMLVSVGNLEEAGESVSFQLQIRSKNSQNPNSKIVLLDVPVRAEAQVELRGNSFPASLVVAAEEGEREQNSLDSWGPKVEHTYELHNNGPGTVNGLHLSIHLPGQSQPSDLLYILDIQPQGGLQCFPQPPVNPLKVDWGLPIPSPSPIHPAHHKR
- Sequence (P08514 891-1039 limits assumed): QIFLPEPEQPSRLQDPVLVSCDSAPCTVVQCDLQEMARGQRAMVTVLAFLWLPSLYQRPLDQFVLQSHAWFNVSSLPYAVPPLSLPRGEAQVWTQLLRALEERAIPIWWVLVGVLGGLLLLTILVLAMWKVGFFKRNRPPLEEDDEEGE
- Sequence (P05106 27-788): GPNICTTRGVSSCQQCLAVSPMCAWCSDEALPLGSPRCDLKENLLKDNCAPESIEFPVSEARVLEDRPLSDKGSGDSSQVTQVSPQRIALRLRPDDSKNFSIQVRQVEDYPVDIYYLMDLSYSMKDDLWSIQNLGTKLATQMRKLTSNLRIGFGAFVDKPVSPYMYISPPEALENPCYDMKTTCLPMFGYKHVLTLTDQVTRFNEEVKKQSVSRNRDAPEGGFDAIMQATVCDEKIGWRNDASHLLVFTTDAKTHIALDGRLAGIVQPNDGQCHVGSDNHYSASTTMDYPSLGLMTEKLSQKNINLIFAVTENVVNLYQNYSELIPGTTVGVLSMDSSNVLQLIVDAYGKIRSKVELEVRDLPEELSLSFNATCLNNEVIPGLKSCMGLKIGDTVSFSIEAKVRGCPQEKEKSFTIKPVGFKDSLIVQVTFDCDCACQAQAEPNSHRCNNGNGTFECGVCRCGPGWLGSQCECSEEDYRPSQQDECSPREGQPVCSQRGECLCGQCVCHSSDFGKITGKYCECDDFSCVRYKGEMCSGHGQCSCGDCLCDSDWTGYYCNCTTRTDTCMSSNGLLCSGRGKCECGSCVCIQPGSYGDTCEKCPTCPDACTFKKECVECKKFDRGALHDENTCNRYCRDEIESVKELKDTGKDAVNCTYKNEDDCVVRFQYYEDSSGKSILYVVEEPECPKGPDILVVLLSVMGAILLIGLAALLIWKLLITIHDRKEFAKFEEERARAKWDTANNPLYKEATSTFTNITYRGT
- Assay explanation: Solid-phase assay: biotinylated-fibrinogen binding to immobilized αIIbβ3
- Cond: biotinylated-fibrinogen 10 nM, 2 hours at 37° C, 1 mM CaCl2, read-out: IC50 αIIbβ
Counter-ions that a name gives are not always drawn.
Please go through the items and note down their IC50.
State just the number; it will be interpreted in nM.

Item Cc1cc(C)c(S(=O)(=O)N[C@@H](CNC(=O)c2ccc(-c3cccc(NC(=N)N)c3)s2)C(=O)O)c(C)c1 [Compound M-3, (trifluoroacetic acid salt)] : provide IC50
1.1

Item Cc1cc(C)c(S(=O)(=O)N[C@@H](CNC(=O)c2ccc(-c3cccc(CNC(=N)N)c3)s2)C(=O)O)c(C)c1 [Compound F-2, trifluoroacetic acid salt] : provide IC50
0.25

Item N=C(N)Nc1cccc(-c2ccc(C(=O)NC[C@H](NS(=O)(=O)c3ccccc3)C(=O)O)s2)c1 [Compound K-3, (trifluoroacetic acid salt)] : provide IC50
1.4

Item Cc1cc(C)c(S(=O)(=O)N[C@@H](CNC(=O)c2ccc(/C=C/CNC(=N)N)s2)C(=O)O)c(C)c1 [Compound U-2] : provide IC50
0.54

Item N=C(N)NCc1cccc(-c2ccc(C(=O)NC[C@H](NS(=O)(=O)c3ccccc3)C(=O)O)s2)c1 [Compound E-2, trifluoroacetic acid salt] : provide IC50
0.55

----------
- Experimental system: αvβ3 (Homo sapiens, UniProt P05106+P06756)
- Sequence (P06756 31-889 limits assumed, one chain of several): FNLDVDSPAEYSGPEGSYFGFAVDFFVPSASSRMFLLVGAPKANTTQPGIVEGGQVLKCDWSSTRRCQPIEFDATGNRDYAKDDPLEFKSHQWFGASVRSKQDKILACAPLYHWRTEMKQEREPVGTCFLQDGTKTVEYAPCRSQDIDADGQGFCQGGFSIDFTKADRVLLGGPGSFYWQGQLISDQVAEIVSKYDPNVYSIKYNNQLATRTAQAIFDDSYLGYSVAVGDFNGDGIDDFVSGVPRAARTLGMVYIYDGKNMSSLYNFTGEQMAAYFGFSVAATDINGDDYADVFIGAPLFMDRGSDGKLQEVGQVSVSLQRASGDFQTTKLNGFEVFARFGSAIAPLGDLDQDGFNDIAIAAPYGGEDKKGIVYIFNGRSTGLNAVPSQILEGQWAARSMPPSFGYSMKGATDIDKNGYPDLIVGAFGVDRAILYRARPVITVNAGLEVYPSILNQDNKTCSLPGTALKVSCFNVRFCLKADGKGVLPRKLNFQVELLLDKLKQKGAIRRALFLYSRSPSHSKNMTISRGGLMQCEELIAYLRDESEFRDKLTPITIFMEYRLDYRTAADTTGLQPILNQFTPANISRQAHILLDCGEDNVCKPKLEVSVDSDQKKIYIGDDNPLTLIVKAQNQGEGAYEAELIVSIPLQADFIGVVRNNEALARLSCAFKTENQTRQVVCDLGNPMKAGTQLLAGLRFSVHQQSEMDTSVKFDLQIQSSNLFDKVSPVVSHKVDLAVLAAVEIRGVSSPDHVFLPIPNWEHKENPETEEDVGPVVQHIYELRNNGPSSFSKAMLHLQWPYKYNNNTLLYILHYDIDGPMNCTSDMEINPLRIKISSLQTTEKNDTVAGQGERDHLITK
- Sequence (P06756 891-1048 limits assumed, one chain of several): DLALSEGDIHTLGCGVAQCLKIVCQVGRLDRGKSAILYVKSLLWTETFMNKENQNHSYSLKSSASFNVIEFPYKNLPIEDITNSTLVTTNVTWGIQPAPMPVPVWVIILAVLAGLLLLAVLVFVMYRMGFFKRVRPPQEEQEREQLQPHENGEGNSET
- Assay explanation: Cell attachment assay, αvβ3
- Assay type: cell-based
- Cond: 1 hour at 37° C
Structures can show the parent of a compound that is named as a salt.
Please go through the items and note down their IC50.
State just the number; it will be interpreted in nM.

Item N=C(N)NCc1cccc(-c2ccc(C(=O)NC[C@H](NS(=O)(=O)c3ccccc3)C(=O)O)s2)c1 [Compound E-2, trifluoroacetic acid salt] : provide IC50
0.18

Item `Cc1cc(C)c(S(=O)(=O)N[C@@H](CNC(=O)c2ccc(/C=C/CNC(=N)N)s2)C(=O)O)c(C)c1` : provide IC50
1.5

Item Cc1cc(C)c(S(=O)(=O)N[C@@H](CNC(=O)c2ccc(-c3cccc(CNC(=N)N)c3)s2)C(=O)O)c(C)c1 [Compound F-2, trifluoroacetic acid salt] : provide IC50
2.9

Item Cc1cc(C)c(S(=O)(=O)N[C@@H](CNC(=O)c2ccc(-c3cccc(NC(=N)N)c3)s2)C(=O)O)c(C)c1 [Compound M-3, (trifluoroacetic acid salt)] : provide IC50
0.018

Item N=C(N)Nc1cccc(-c2ccc(C(=O)NC[C@H](NS(=O)(=O)c3ccccc3)C(=O)O)s2)c1 [Compound K-3, (trifluoroacetic acid salt)] : provide IC50
2.8

----------
- Experimental system: αvβ5 (Homo sapiens, UniProt P06756+P18084)
- Construct: Cells HT29, K562, or K562 transfected with αvβ3; endogenous in cells
- Sequence (P06756 31-889 limits assumed): as the sequence (P06756 31-889 limits assumed, one chain of several) above
- Sequence (P06756 891-1048 limits assumed): as the sequence (P06756 891-1048 limits assumed, one chain of several) above
- Sequence (P18084 24-799): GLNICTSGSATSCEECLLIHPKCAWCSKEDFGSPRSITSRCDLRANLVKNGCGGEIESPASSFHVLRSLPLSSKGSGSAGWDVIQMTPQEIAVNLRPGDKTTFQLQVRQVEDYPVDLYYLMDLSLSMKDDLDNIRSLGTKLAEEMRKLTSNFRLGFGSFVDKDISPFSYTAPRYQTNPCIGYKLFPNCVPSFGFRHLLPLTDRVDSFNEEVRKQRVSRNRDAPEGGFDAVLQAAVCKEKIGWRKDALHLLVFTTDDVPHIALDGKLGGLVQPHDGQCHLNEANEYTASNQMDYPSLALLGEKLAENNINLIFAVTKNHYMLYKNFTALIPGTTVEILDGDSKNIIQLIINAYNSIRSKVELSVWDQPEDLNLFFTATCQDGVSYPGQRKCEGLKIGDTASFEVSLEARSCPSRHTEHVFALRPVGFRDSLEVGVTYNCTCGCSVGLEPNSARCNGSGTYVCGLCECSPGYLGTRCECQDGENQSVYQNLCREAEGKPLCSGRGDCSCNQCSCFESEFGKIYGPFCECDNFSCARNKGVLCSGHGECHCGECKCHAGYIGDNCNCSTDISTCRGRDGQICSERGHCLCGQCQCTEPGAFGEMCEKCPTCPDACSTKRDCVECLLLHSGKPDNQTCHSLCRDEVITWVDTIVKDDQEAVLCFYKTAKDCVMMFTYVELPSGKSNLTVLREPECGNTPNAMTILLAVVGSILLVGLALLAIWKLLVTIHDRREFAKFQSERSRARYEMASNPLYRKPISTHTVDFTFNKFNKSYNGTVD
- Assay explanation: Cell attachment assay, αvβ5
- Cond: 1 hour at 37° C
Where a name gives a salt, the structure may show the parent alone.
Quantity: log10 IC50 (log10 of the value in nM)
Note: values are log10 of IC50 expressed in nM.

Item N=C(N)Nc1cccc(-c2ccc(C(=O)NC[C@H](NS(=O)(=O)c3ccccc3)C(=O)O)s2)c1 [Compound K-3, (trifluoroacetic acid salt)] : provide log10 IC50
0.81

Item Cc1cc(C)c(S(=O)(=O)N[C@@H](CNC(=O)c2ccc(-c3cccc(NC(=N)N)c3)s2)C(=O)O)c(C)c1 [Compound M-3, (trifluoroacetic acid salt)] : provide log10 IC50
0.20

Item `Cc1cc(C)c(S(=O)(=O)N[C@@H](CNC(=O)c2ccc(/C=C/CNC(=N)N)s2)C(=O)O)c(C)c1` : provide log10 IC50
0.78

Item Cc1cc(C)c(S(=O)(=O)N[C@@H](CNC(=O)c2ccc(-c3cccc(CNC(=N)N)c3)s2)C(=O)O)c(C)c1 [Compound F-2, trifluoroacetic acid salt] : provide log10 IC50
1.04

Item N=C(N)NCc1cccc(-c2ccc(C(=O)NC[C@H](NS(=O)(=O)c3ccccc3)C(=O)O)s2)c1 [Compound E-2, trifluoroacetic acid salt] : provide log10 IC50
1.86
